- Tested on: biotinyl-Trp-oxazolone
- test.protocol: self-aminoacylation, catalytic enhancement (BWO) (fold over background); higher = more active; k-Seq, kA / k0A0; sequences stand for … in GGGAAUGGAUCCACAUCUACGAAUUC…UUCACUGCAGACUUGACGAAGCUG
This sample holds only a part of the variants without activity.
Kindly supply the reported self-aminoacylation values for the records listed here.
Provide a numeric answer; units are not to be included.

Query CCACACCUCAAGCAGUCGGUC [Fam1B.1 aminoacylation ribozyme variant] yields self-aminoacylation of 1.02

Query CCACACCUCAAGCAAUCAGUC [Fam1B.1 aminoacylation ribozyme variant] yields self-aminoacylation of 0.558

Query AAGUCUGCUAAUAUUCGCAAG [Fam3.1 aminoacylation ribozyme variant] yields self-aminoacylation of 1.77

Query CUUCACCUAGGUCACCGGGUG [Fam2.2 aminoacylation ribozyme variant] yields self-aminoacylation of 5.51

Query AUGCACCUAGGUCAUCGGGUU [Fam2.2 aminoacylation ribozyme variant] yields self-aminoacylation of 4.05

Query AUUACUCUGGUCAUCGAGUAA [Fam2.1 aminoacylation ribozyme variant] yields self-aminoacylation of 2.27

Query CCACACAACAAGCAAUCGGUC [Fam1B.1 aminoacylation ribozyme variant] yields self-aminoacylation of 0.693

Query UCACACUUCAAGCAAUCGUUC [Fam1B.1 aminoacylation ribozyme variant] yields self-aminoacylation of 0.608
